# Tested on: AML cell line HEL
# ASSAY DETAILS: Free drug 96-hour resazurin cytotoxicity assay, HEL
# Format: cell-based
# APPLIED CONDITIONS: Table 1, 96-hour assay, read-out: IC50 Summary for Free Drugs, HEL
QUANTITY: IC50 (nM)

INSERT INTO measurements (molecule, measurement_target, quantity, reported_value) VALUES
  ('COc1ccc(C2=CN3C(=O)c4cc(OC)c(OCCCOc5cc6c(cc5OC)C(=O)N5C=C(c7cccc(N)c7)C[C@H]5C=N6)cc4N=C[C@@H]3C2)cc1 [Compound 19]', 'AML cell line HEL', 'IC50', 0.2);

* * *

# IC50 per record follows
# Tested on: 786-O cells
# ASSAY DETAILS: Free drug 48 hour Cell Titer Glo cytotoxicity, 786-O
# Assay type: cell-based
# APPLIED CONDITIONS: Homo sapiens, 786-0, Table 3, 48 hours, read-out: IC50 Summary for Free Drugs, 786-O
QUANTITY: IC50 (nM)

INSERT INTO assay_data (substance_smiles, reported_value) VALUES
  ('COc1ccc(C2=CN3C(=O)c4cc(OC)c(OCCCOc5cc6c(cc5OC)C(=O)N5C=C(c7ccc(N)cc7)C[C@H]5C=N6)cc4N=C[C@@H]3C2)cc1', 0.4),
  ('COc1ccc(C2=CN3C(=O)c4cc(OC)c(OCCCCCOc5cc6c(cc5OC)C(=O)N5C=C(c7ccc(C=O)cc7)C[C@H]5C=N6)cc4N=C[C@@H]3C2)cc1', 0.09),
  ('COc1ccc(C2=CN3C(=O)c4cc(OC)c(OCCCCCOc5cc6c(cc5OC)C(=O)N5C=C(c7ccc(O)cc7)C[C@H]5C=N6)cc4N=C[C@@H]3C2)cc1', 0.06);

* * *

# System: A2780 parental cell line
# ASSAY DETAILS: A2780 assay (MTT cytotoxicity)
# Format: cell-based
# APPLIED CONDITIONS: Homo sapiens, 72 hours
pIC50: −log10 of the molar value.
QUANTITY: pIC50

INSERT INTO results (compound, measurement_target, quantity, reported_value) VALUES
  ('COc1ccc(C2=CN3C(=O)c4cc(OC)c(OCCCOc5cc6c(cc5OC)C(=O)N5C=C(c7ccc(N)cc7)C[C@H]5C=N6)cc4N=C[C@@H]3C2)cc1 [Compound 11]', 'A2780 parental cell line', 'pIC50', 4.93);

* * *

# Test system: Caki-1 cells
# ASSAY DETAILS: Free drug 48 hour Cell Titer Glo cytotoxicity, Caki-1
# Type: cell-based
# APPLIED CONDITIONS: Homo sapiens, Table 3, 48 hours, read-out: IC50 Summary for Free Drugs, Caki-1
QUANTITY: IC50 (nM)

INSERT INTO results (compound, measurement_target, reported_value) VALUES
  ('COc1ccc(C2=CN3C(=O)c4cc(OC)c(OCCCOc5cc6c(cc5OC)C(=O)N5C=C(c7ccc(N)cc7)C[C@H]5C=N6)cc4N=C[C@@H]3C2)cc1 [Compound 11]', 'Caki-1 cells', 0.2),
  ('COc1ccc(C2=CN3C(=O)c4cc(OC)c(OCCCCCOc5cc6c(cc5OC)C(=O)N5C=C(c7ccc(C=O)cc7)C[C@H]5C=N6)cc4N=C[C@@H]3C2)cc1 [Compound 25]', 'Caki-1 cells', 0.06),
  ('COc1ccc(C2=CN3C(=O)c4cc(OC)c(OCCCCCOc5cc6c(cc5OC)C(=O)N5C=C(c7ccc(O)cc7)C[C@H]5C=N6)cc4N=C[C@@H]3C2)cc1 [Compound 23]', 'Caki-1 cells', 0.02);
